Test system: c-Src;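 further: 11-residue human phosphosite peptides and single-mutation variants displayed on the E. coli surface, counted by deep sequencing, each peptide's frequency after selection divided by its frequency in the unselected input library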;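 further: frequency after pTyr selection over input frequency; kinase dosed for 20-30% of maximal phosphorylation in three min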
Assay: phosphorylation enrichment, bacterial display (enrichment ratio); higher = better substrate or ligand; peptides without Tyr show the background
Hi, to clarify the labels: criterion met covers phosphorylation enrichment from 0.5 upward, criterion not met covers anything below 0.5.

// below: answered sequences
SEQUENCE_CONTENT | DISCRETE_LABEL
ALRASYTPSPA [ESS2_Y418] | criterion not met
GLDGSYLLTDS [SH2D1A_Y29_R32T] | criterion not met
NTGDDYDLFGG [PTPN11_Y63_Y62D_YF] | criterion met
DIMDLYNQPEP [IL36A_Y96] | criterion met
PESCLYKESWL [IQGAP2_Y630] | criterion met
ERRLIYASDPK [VPS13D_Y864_T865A] | criterion not met
IGMIIYFARKA [VCAM1_Y718] | criterion not met
EKESCYILHSS [PATJ_Y783_E779K] | criterion met

Prompt line: Reported phosphorylation enrichment reaches at least 0.5 for SLIDMYSEVLA [OPA1_Y268_D273A] ?
Response line: criterion met

Prompt line: Exam item: decide whether the reported phosphorylation enrichment for QSSALYEDRYL [ASS1_Y83] is at least 0.5.
Response line: criterion met

Prompt line: Is the recorded value of phosphorylation enrichment equal to or greater than 0.5 for this sequence? EVDELYREAPI [MYL12B_Y143]
Response line: criterion met

Prompt line: Is phosphorylation enrichment at least 0.5? Consider NTGVYYDLYGG [PTPN11_Y63_D61V]
Response line: criterion met

Prompt line: Is it the case that PSDLLYILDIQ [ITGA2B_Y845] has phosphorylation enrichment reaching or exceeding 0.5?
Response line: criterion met
